System: MRK-nu-1 (Breast Carcinoma)
Experiment: Bliss excess, mean over the matrix (fraction); higher = more synergy
Please provide measured Bliss excess for the entries that follow.
// no unit string in output, number only

// sample CS(=O)(=O)CCNCc1ccc(-c2ccc3ncnc(Nc4ccc(OCc5cccc(F)c5)c(Cl)c4)c3c2)o1 [Lapatinib] + C[C@@H](Oc1cc(-c2cnn(C3CCNCC3)c2)cnc1N)c1c(Cl)ccc(F)c1Cl [Crizotinib] (first compound max 10 µM, 7x7, partner max 10 µM) , its Bliss excess was 0.0477

// sample CC1(C)CCC(CN2CCN(c3ccc(C(=O)NS(=O)(=O)c4ccc(NCC5CCOCC5)c([N+](=O)[O-])c4)c(Oc4cnc5[nH]ccc5c4)c3)CC2)=C(c2ccc(Cl)cc2)C1 [Venetoclax] + C[C@@H](Nc1cc(F)cc(F)c1)c1cc(C(=O)N(C)C)cc2c(=O)cc(N3CCOCC3)oc12 [AZD8186] (first compound max 1 µM, 7x7, partner max 3 µM) , its Bliss excess was -0.0165

// sample CC(=O)Nc1cccc(-n2c(=O)n(C3CC3)c(=O)c3c(Nc4ccc(I)cc4F)n(C)c(=O)c(C)c32)c1 [Trametinib] + Cc1nc(-c2cn3c(n2)-c2ccc(-c4cnn(C(C)(C)C(N)=O)c4)cc2OCC3)n(C(C)C)n1 [Taselisib] (first compound max 1 µM, 7x7, partner max 10 µM) , its Bliss excess was 0.0116

###

Please provide measured Bliss excess for the entries that follow.
Tested on: OCI-M1 (Acute Myeloid Leukemia)
Experiment: Bliss excess, mean over the matrix (fraction); higher = more synergy

// sample Cc1c2c(nn1C)CSCc1cc(n(C)n1)CSc1cc(c3ccccc3c1)OCCCc1c(C(=O)O)n(C)c3c-2c(Cl)ccc13 [AZD5991] + C[C@@H]1COCCN1C2=NC(=NC(=C2)C3(CC3)[S@](=N)(=O)C)C4=C5C=CNC5=NC=C4 [AZD6738] (first compound max 1 µM, 7x7, partner max 10 µM) , its Bliss excess was 0.0061

// sample CN(C)CCCOc1ccc(-c2ccc3ncc4c(c3c2)n(C2CCOCC2)c(=O)n4C)cn1 [AZD0156] + CCN(CCO)CCCOc1ccc2c(Nc3cc(CC(=O)Nc4cccc(F)c4)[nH]n3)ncnc2c1 [AZD2811] (first compound max 1 µM, 7x7, partner max 1 µM) , its Bliss excess was 0.042

###

Test system: OVKATE (Ovarian Carcinoma)
Experiment: combination Emax (second highest fraction inhibited in the dose matrix, 72 h); higher = more inhibition; extreme values may be limits of the assay
Please provide measured combination Emax for the entries that follow.
// no unit string in output, number only

Measured combination Emax for this entry Cc1c2c(nn1C)CSCc1cc(n(C)n1)CSc1cc(c3ccccc3c1)OCCCc1c(C(=O)O)n(C)c3c-2c(Cl)ccc13 [AZD5991] + C[C@@H](Nc1cc(F)cc(F)c1)c1cc(C(=O)N(C)C)cc2c(=O)cc(N3CCOCC3)oc12 [AZD8186] (first compound max 1 µM, 7x7, partner max 3 µM) on OVKATE (Ovarian Carcinoma): 0.353

Measured combination Emax for this entry C[C@@H](Oc1cc(-c2cnn(C3CCNCC3)c2)cnc1N)c1c(Cl)ccc(F)c1Cl [Crizotinib] + CC1=C(C(=CC=C1)Cl)NC(=O)C2=CN=C(S2)NC3=CC(=NC(=N3)C)N4CCN(CC4)CCO [Dasatinib] (first compound max 10 µM, 7x7, partner max 2 µM) on OVKATE (Ovarian Carcinoma): 0.572

Measured combination Emax for this entry NC1(C(=O)N[C@@H](CCO)c2ccc(Cl)cc2)CCN(c2ncnc3[nH]ccc23)CC1 [Capivasertib] + Cn1cnc2c(F)c(Nc3ccc(Br)cc3Cl)c(C(=O)NOCCO)cc21 [Selumetinib] (first compound max 10 µM, 7x7, partner max 10 µM) on OVKATE (Ovarian Carcinoma): 0.385

Measured combination Emax for this entry Cc1c2c(nn1C)CSCc1cc(n(C)n1)CSc1cc(c3ccccc3c1)OCCCc1c(C(=O)O)n(C)c3c-2c(Cl)ccc13 [AZD5991] + CS(=O)(=O)CCNCc1ccc(-c2ccc3ncnc(Nc4ccc(OCc5cccc(F)c5)c(Cl)c4)c3c2)o1 [Lapatinib] (first compound max 1 µM, 7x7, partner max 10 µM) on OVKATE (Ovarian Carcinoma): 0.307

###

Test system: TOV-21G (Ovarian Carcinoma)
Experiment: Bliss excess, mean over the matrix (fraction); higher = more synergy
Please provide measured Bliss excess for the entries that follow.
// no unit string in output, number only

// sample NC1(C(=O)N[C@@H](CCO)c2ccc(Cl)cc2)CCN(c2ncnc3[nH]ccc23)CC1 [Capivasertib] + C[C@@H]1COCCN1C2=NC(=NC(=C2)C3(CC3)[S@](=N)(=O)C)C4=C5C=CNC5=NC=C4 [AZD6738] (first compound max 10 µM, 7x7, partner max 10 µM) , its Bliss excess was -0.0241

// sample Cc1c2c(nn1C)CSCc1cc(n(C)n1)CSc1cc(c3ccccc3c1)OCCCc1c(C(=O)O)n(C)c3c-2c(Cl)ccc13 [AZD5991] + CC1(C)CCC(CN2CCN(c3ccc(C(=O)NS(=O)(=O)c4ccc(NCC5CCOCC5)c([N+](=O)[O-])c4)c(Oc4cnc5[nH]ccc5c4)c3)CC2)=C(c2ccc(Cl)cc2)C1 [Venetoclax] (first compound max 1 µM, 7x7, partner max 1 µM) , its Bliss excess was -0.0115

// sample CC(=O)c1c(C)c2cnc(Nc3ccc(N4CCNCC4)cn3)nc2n(C2CCCC2)c1=O [Palbociclib] + CC1(C)CCC(CN2CCN(c3ccc(C(=O)NS(=O)(=O)c4ccc(NCC5CCOCC5)c([N+](=O)[O-])c4)c(Oc4cnc5[nH]ccc5c4)c3)CC2)=C(c2ccc(Cl)cc2)C1 [Venetoclax] (first compound max 10 µM, 7x7, partner max 1 µM) , its Bliss excess was -0.025

// sample CC1(C)CCC(CN2CCN(c3ccc(C(=O)NS(=O)(=O)c4ccc(NCC5CCOCC5)c([N+](=O)[O-])c4)c(Oc4cnc5[nH]ccc5c4)c3)CC2)=C(c2ccc(Cl)cc2)C1 [Venetoclax] + C=CCn1c(=O)c2cnc(Nc3ccc(N4CCN(C)CC4)cc3)nc2n1-c1cccc(C(C)(C)O)n1 [AZD1775] (first compound max 1 µM, partner max 1 µM) , its Bliss excess was -0.0261

// sample C[C@@H](c1ccc2nccn2c1)n1nnc2ncc(-c3cnn(C)c3)nc21 [Savolitinib] + Cc1c2c(nn1C)CSCc1cc(n(C)n1)CSc1cc(c3ccccc3c1)OCCCc1c(C(=O)O)n(C)c3c-2c(Cl)ccc13 [AZD5991] (first compound max 1 µM, 7x7, partner max 1 µM) , its Bliss excess was -0.0111

// sample COc1nnc2ccc(N3CCC(c4ccc(OCCN5CCN(C)C(=O)[C@H]5C)cc4)CC3)nn12 [AZD5153] + CC1(C)CCC(CN2CCN(c3ccc(C(=O)NS(=O)(=O)c4ccc(NCC5CCOCC5)c([N+](=O)[O-])c4)c(Oc4cnc5[nH]ccc5c4)c3)CC2)=C(c2ccc(Cl)cc2)C1 [Venetoclax] (first compound max 1 µM, 7x7, partner max 1 µM) , its Bliss excess was -0.0264

###

Test system: NCI-H1648 (Lung Adenocarcinoma)
Experiment: combination Emax (second highest fraction inhibited in the dose matrix, 72 h); higher = more inhibition; extreme values may be limits of the assay
Decide by combination Emax: equal to or exceeding 0.6 means class 1, less means class 0.

Would you say N#Cc1cnc(Nc2cc(NC[C@H]3CNCCO3)c(C(F)(F)F)cn2)cn1 [SRA737] + Nc1ccn([C@@H]2O[C@H](CO)[C@@H](O)C2(F)F)c(=O)n1 [Gemcitabine] (first compound max 10 µM, 7x7, partner max 0.3 µM) shows combination Emax at minimum 0.6?
class 1

Would you say Cc1c2c(nn1C)CSCc1cc(n(C)n1)CSc1cc(c3ccccc3c1)OCCCc1c(C(=O)O)n(C)c3c-2c(Cl)ccc13 [AZD5991] + Nc1ccn([C@@H]2O[C@H](CO)[C@@H](O)C2(F)F)c(=O)n1 [Gemcitabine] (first compound max 1 µM, 7x7, partner max 0.3 µM) shows combination Emax at minimum 0.6?
class 0

Would you say CN(CCO)CC[C@H](CSc1ccccc1)Nc1ccc(S(=O)(=O)NC(=O)c2ccc(N3CCC([C@@H](O)c4ccccc4-c4ccc(Cl)cc4)CC3)cc2)cc1S(=O)(=O)C(F)(F)F [AZD4320] + CN(C)CCCOc1ccc(-c2ccc3ncc4c(c3c2)n(C2CCOCC2)c(=O)n4C)cn1 [AZD0156] (first compound max 1 µM, 7x7, partner max 1 µM) shows combination Emax at minimum 0.6?
class 0

Would you say COc1cccc(OCCCN)c1-c1cc(Nc2cnc(C#N)cn2)n[nH]1 [Prexasertib] + CN(C)CCCOc1ccc(-c2ccc3ncc4c(c3c2)n(C2CCOCC2)c(=O)n4C)cn1 [AZD0156] (first compound max 1 µM, 7x7, partner max 1 µM) shows combination Emax at minimum 0.6?
class 1

Would you say Cn1cnc2c(F)c(Nc3ccc(Br)cc3Cl)c(C(=O)NOCCO)cc21 [Selumetinib] + C=CCn1c(=O)c2cnc(Nc3ccc(N4CCN(C)CC4)cc3)nc2n1-c1cccc(C(C)(C)O)n1 [AZD1775] (first compound max 10 µM, partner max 1 µM) shows combination Emax at minimum 0.6?
class 1

Would you say C[C@@H]1COCCN1c1cc(C2([S@](C)(=N)=O)CC2)nc(-c2ccnc3[nH]ccc23)n1 [AZD6738] + Nc1ccn([C@@H]2O[C@H](CO)[C@@H](O)C2(F)F)c(=O)n1 [Gemcitabine] (first compound max 10 µM, 7x7, partner max 0.3 µM) shows combination Emax at minimum 0.6?
class 1

Would you say COc1nnc2ccc(N3CCC(c4ccc(OCCN5CCN(C)C(=O)[C@H]5C)cc4)CC3)nn12 [AZD5153] + CC1(C)CCC(CN2CCN(c3ccc(C(=O)NS(=O)(=O)c4ccc(NCC5CCOCC5)c([N+](=O)[O-])c4)c(Oc4cnc5[nH]ccc5c4)c3)CC2)=C(c2ccc(Cl)cc2)C1 [Venetoclax] (first compound max 1 µM, 7x7, partner max 1 µM) shows combination Emax at minimum 0.6?
class 1
